Assay: Clearance in Beagle dog at 2 mg/kg, iv
Format: ADME, organism-based, Canis lupus familiaris
Parameters: dose 2 mg/kg, route intravenous
Settings: in vivo
assay-endpoint: clearance

The reported value for "Cc1cc(COc2ccc(C(=O)N[C@@H]3CCOC[C@@H]3C(=O)NO)cc2)c2ccccc2n1" in terms of clearance is 28.3 mL/min/kg

###

Assay: Half life in Beagle dog at 2 mg/kg, iv
Assay type: ADME, organism-based, Canis lupus familiaris
Set-up: dose 2 mg/kg, route intravenous
Conditions: in vivo
assay-endpoint: half-life (h)
Answer in h, number only, no unit symbol.

Record "Cc1cc(COc2ccc(C(=O)N[C@@H]3CCOC[C@@H]3C(=O)NO)cc2)c2ccccc2n1" , field half-life: 1.6
